Below: a set of entries, each annotated with reported AC50.
biological target: Mu-type opioid receptor (Homo sapiens); further: assay procedure not described here
Sequence (P35372 whole entry): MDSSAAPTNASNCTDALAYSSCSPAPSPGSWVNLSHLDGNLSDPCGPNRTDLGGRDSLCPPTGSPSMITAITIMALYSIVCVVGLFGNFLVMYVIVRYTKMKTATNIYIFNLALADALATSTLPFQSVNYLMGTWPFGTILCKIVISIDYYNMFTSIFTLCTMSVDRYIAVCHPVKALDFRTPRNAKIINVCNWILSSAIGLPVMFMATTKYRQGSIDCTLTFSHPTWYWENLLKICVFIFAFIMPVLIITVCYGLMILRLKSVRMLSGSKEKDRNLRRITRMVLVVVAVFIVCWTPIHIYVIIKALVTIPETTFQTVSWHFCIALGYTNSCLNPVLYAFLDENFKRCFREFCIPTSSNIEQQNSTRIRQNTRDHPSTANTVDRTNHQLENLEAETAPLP
MEASURED_ENDPOINT: AC50

CC(=O)NS(=O)(=O)c1ccc(N)cc1 [SULFACETAMIDE]    > 30 µM
COC(=O)C1=C(C)NC(C)=C(C(=O)OC(C)C)C1c1cccc2nonc12 (stereo not given)    > 30 µM
CN(C/C=C/c1ccccc1)Cc1cccc2ccccc12    > 30 µM
O=C(O)CCCc1ccccc1    > 10 µM
CN(C)CCCN1c2ccccc2CCc2ccc(Cl)cc21    > 10 µM
CN(C)CCCN1c2ccccc2Sc2ccccc21    6.5 µM
CNC(=O)c1cc(Oc2ccc(NC(=O)Nc3ccc(Cl)c(C(F)(F)F)c3)cc2)ccn1    > 30 µM
CN1CC(=O)N2[C@H](c3ccc4c(c3)OCO4)c3[nH]c4ccccc4c3C[C@@H]2C1=O    > 30 µM
C#C[C@]1(O)CC[C@H]2[C@@H]3CCc4cc(O)ccc4[C@H]3CC[C@@]21C    > 30 µM
CC(C)Cc1ccc(CC(=O)O)cc1    > 30 µM
CC(C)NCC1CCc2cc(CO)c([N+](=O)[O-])cc2N1 (stereo not given)    > 30 µM
OCc1cc([C@@H](O)CNCCCCCCOCCOCc2c(Cl)cccc2Cl)ccc1O    > 30 µM
CCCCCN(C)CCC(O)(P(=O)(O)O)P(=O)(O)O    > 30 µM
NC(=O)C[S+]([O-])C(c1ccccc1)c1ccccc1 (stereo not given)    > 10 µM
CO/N=C(\C(=O)N[C@@H]1C(=O)N2C(C(=O)[O-])=C(C[N+]3(C)CCCC3)CS[C@H]12)c1csc(N)n1    > 300 µM
CC(C)(N)Cc1ccc(Cl)cc1    > 30 µM
CN1CCC2=C(C1)C(c1ccccc1)c1ccccc12 (stereo not given)    > 30 µM
O=C(NC[C@H]1CN(c2ccc(N3CCOCC3=O)cc2)C(=O)O1)c1ccc(Cl)s1    > 30 µM
CC(C(=O)O)c1ccc(C(=O)c2cccs2)cc1 (stereo not given)    > 30 µM
NC(=O)c1cnccn1 [PYRAZINAMIDE]    > 30 µM

====

molecular target: Sodium-dependent dopamine transporter (Homo sapiens, UniProt Q01959); further: assay procedure not described here
Sequence (Q01959 whole entry): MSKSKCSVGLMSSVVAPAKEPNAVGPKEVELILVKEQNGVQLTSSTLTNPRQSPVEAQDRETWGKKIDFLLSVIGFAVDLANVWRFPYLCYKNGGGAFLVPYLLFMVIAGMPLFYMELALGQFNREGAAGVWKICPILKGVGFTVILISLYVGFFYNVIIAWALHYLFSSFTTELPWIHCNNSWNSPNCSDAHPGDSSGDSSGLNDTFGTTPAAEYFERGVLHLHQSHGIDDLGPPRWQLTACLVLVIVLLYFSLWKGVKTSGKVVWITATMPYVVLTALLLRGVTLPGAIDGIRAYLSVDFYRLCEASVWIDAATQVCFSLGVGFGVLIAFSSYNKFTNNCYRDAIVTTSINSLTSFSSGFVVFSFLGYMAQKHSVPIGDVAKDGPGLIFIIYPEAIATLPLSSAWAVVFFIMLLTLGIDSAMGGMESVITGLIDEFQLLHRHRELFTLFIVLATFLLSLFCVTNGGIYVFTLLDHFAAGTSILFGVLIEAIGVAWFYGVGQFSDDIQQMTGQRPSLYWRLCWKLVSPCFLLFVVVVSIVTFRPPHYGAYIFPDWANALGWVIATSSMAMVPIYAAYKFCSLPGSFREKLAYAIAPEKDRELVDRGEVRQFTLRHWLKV
MEASURED_ENDPOINT: AC50

O=C(CCCCCCC(=O)Nc1ccccc1)NO [VORINOSTAT]    > 30 µM
CC(Cc1ccccc1)NCCC(c1ccccc1)c1ccccc1 (stereo not given) [PRENYLAMINE]    4.7 µM
C=C1C[C@@H]2[C@H](CC[C@]3(C)C(=O)CC[C@@H]23)[C@@]2(C)C=CC(=O)C=C12 [EXEMESTANE]    > 30 µM
CCC1(C2=CCCCCC2)C(=O)NC(=O)NC1=O [HEPTABARBITAL]    > 10 µM
C[N+](C)(C)CCOC(N)=O [CARBAMOYLCHOLINE]    > 10 µM

====

// values below are AC50; system is Gamma-aminobutyric acid receptor subunit alpha-1 (Rattus norvegicus); further: assay procedure not described here
Sequence (P62813 whole entry): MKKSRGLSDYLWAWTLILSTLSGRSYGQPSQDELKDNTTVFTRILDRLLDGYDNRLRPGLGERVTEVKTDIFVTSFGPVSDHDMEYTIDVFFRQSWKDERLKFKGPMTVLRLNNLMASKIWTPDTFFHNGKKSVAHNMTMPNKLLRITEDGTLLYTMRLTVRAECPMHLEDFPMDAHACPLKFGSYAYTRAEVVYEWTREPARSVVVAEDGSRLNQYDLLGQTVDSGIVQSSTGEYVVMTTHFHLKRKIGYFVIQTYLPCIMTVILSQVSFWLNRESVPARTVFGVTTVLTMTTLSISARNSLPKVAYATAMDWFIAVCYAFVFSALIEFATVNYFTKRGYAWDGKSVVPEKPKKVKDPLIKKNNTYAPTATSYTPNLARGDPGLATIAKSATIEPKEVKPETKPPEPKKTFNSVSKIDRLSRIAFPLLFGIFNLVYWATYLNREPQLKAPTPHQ
MEASURED_ENDPOINT: AC50

CC(C)=CCC1C(=O)N(c2ccccc2)N(c2ccccc2)C1=O [FEPRAZONE]    > 30 µM
COc1cc(NCc2ccc3nc(N)nc(N)c3c2C)cc(OC)c1OC [TRIMETREXATE]    > 30 µM
OC[C@@H](O)[C@@H](O)[C@H](O)[C@H](O)CO [MANNITOL]    > 30 µM
CCCC[N+]1(C)[C@@H]2C[C@@H](OC(=O)[C@H](CO)c3ccccc3)C[C@H]1[C@@H]1O[C@@H]12 (some centres not stated) [BUTYLSCOPOLAMINE]    > 30 µM
O=C1c2c(O)c(=O)ccn2N([C@@H]2c3ccccc3SCc3c2ccc(F)c3F)[C@@H]2COCCN12 [BALOXAVIR]    > 30 µM
Nc1ccc(/N=N/c2ccccc2)c(N)n1 [PHENAZOPYRIDINE]    > 30 µM
O=C1CCC(N2C(=O)c3ccccc3C2=O)C(=O)N1 (configuration not stated) [THALIDOMIDE]    > 30 µM
Nc1nc(-n2cc(C(=O)O)c(=O)c3cc(F)c(N4CC(O)C4)c(Cl)c32)c(F)cc1F [DELAFLOXACIN]    > 30 µM
CCC(=O)O[C@H]1[C@H](O[C@@H]2[C@@H](C)[C@H](O[C@H]3C[C@@](C)(OC)[C@@H](O)[C@H](C)O3)[C@@H](C)C(=O)O[C@H](CC)[C@@](C)(O)[C@H](O)[C@@H](C)C(=O)[C@H](C)C[C@@]2(C)O)O[C@H](C)C[C@@H]1N(C)C [ERYTHROMYCIN PROPIONATE]    > 30 µM
O=C(O)CCn1c2c(c3ccccc31)C[C@H](NS(=O)(=O)c1ccc(F)cc1)CC2 [RAMATROBAN]    > 30 µM
COCC1=C(C(=O)OC(C)OC(=O)OC(C)C)N2C(=O)[C@@H](NC(=O)/C(=N\OC)c3csc(N)n3)[C@H]2SC1 (some centres not stated) [CEFPODOXIME PROXETIL]    > 30 µM
Cn1cc[nH]c1=S [METHIMAZOLE]    > 30 µM
CC(=O)OC[C@H]1O[C@@H](n2ccc(=O)[nH]c2=O)[C@H](OC(C)=O)[C@@H]1OC(C)=O [URIDINE TRIACETATE]    > 30 µM
CN1CCCC(CN2c3ccccc3Sc3ccccc32)C1 (configuration not stated) [MEPAZINE]    > 30 µM
C(=N\NC1=NCCN1)/c1c2ccccc2c(/C=N/NC2=NCCN2)c2ccccc12 [BISANTRENE]    > 30 µM
Cc1cc2c(cc1CC(=O)c1sccc1S(=O)(=O)Nc1onc(C)c1Cl)OCO2 [SITAXENTAN]    > 30 µM
C1N2CN3CN1CN(C2)C3 [METHENAMINE]    > 30 µM
COc1cc2c(cc1OC)[C@H]1C[C@@H](OC(=O)[C@@H](N)C(C)C)[C@H](CC(C)C)CN1CC2 [VALBENAZINE]    > 30 µM
CCOC(=O)CC(SP(=S)(OC)OC)C(=O)OCC (configuration not stated) [MALATHION]    > 30 µM
CC(=O)O[C@]1(C(C)=O)CC[C@H]2[C@@H]3C[C@H](C)C4=CC(=O)CC[C@]4(C)[C@H]3CC[C@@]21C [MEDROXYPROGESTERONE ACETATE]    13.4 µM
Cc1nc(-c2ccc(OCC(C)C)c(C#N)c2)sc1C(=O)O [FEBUXOSTAT]    > 30 µM
O=C(O)CCCN1CCC(O[C@@H](c2ccc(Cl)cc2)c2ccccn2)CC1 [BEPOTASTINE]    > 30 µM

====

molecular target: Equilibrative nucleoside transporter 1 (Homo sapiens); further: assay procedure not described here
Sequence (Q99808 whole entry): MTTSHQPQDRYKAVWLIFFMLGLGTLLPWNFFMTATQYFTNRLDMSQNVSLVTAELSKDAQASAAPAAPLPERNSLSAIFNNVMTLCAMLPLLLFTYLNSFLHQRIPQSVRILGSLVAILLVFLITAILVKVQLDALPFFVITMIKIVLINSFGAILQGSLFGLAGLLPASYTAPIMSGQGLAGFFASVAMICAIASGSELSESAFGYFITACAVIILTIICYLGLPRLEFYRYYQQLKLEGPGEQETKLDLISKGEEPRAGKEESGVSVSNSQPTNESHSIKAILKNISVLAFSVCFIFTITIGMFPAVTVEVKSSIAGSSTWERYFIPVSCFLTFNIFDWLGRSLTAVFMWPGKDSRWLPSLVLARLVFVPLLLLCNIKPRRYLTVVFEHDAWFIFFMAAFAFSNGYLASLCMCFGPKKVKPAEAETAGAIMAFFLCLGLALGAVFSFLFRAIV
Each entry below carries its recorded AC50.
MEASURED_ENDPOINT: AC50

CC(C)NNC(=O)c1ccncc1    > 30 µM
CCCCCCC(C)(C)c1cc(O)c2c(c1)OC(C)(C)C1CCC(=O)CC21 (stereo not given)    > 30 µM
O=P(O)(O)C(O)(Cc1cccnc1)P(=O)(O)O    > 30 µM
C1=Cc2cccc(OCC3CNCCO3)c2C1 (stereo not given)    > 30 µM
NC(=O)c1cnccn1 [PYRAZINAMIDE]    > 30 µM
CC(Cc1ccccc1)NCCC(c1ccccc1)c1ccccc1 (stereo not given)    > 30 µM
CC(C)c1c(C(=O)Nc2ccccc2)c(-c2ccccc2)c(-c2ccc(F)cc2)n1CC[C@@H](O)C[C@@H](O)CC(=O)O    > 30 µM
CN1CC(=O)N2[C@H](c3ccc4c(c3)OCO4)c3[nH]c4ccccc4c3C[C@@H]2C1=O    > 30 µM
CC(C)(Oc1ccc(C2CC2(Cl)Cl)cc1)C(=O)O (stereo not given) [CIPROFIBRATE]    > 30 µM
COc1ccc2c(c1)C(=O)N(CCc1ccc(S(=O)(=O)NC(=O)NC3CCCCC3)cc1)C(=O)C2(C)C    > 30 µM
[H]/N=C(/N)c1ccc(NCc2nc3cc(C(=O)N(CCC(=O)O)c4ccccn4)ccc3n2C)cc1    > 30 µM
COC(=O)[C@@H]1CC2=CC(=O)CC[C@]2(C)[C@@]23O[C@@H]2C[C@@]2(C)[C@@H](CC[C@@]24CCC(=O)O4)[C@H]13    > 30 µM
CCc1ccc(CCOc2ccc(CC3SC(=O)NC3=O)cc2)nc1 (stereo not given)    > 30 µM
C1COC(NC(C2CC2)C2CC2)=N1    > 30 µM
C[C@H]1C[C@@H]2[C@H]([C@@H](O)C[C@@]3(C)[C@H]2CC[C@]3(O)C(=O)CO)[C@@]2(C)C=CC(=O)C=C12    > 10 µM
CC(=O)N[C@H]1[C@H]([C@H](O)[C@H](O)CO)OC(C(=O)O)=C[C@@H]1N=C(N)N    > 30 µM
C[N+](C)(C)CCOC(N)=O    > 10 µM
CCC1(C2=CCCCCC2)C(=O)NC(=O)NC1=O    > 10 µM
CC(C)Cc1ccc(CC(=O)O)cc1    > 30 µM
O=C(O)CCn1c2c(c3ccccc31)C[C@H](NS(=O)(=O)c1ccc(F)cc1)CC2    > 30 µM
CN1CCCC(n2nc(Cc3ccc(Cl)cc3)c3ccccc3c2=O)CC1 (stereo not given)    > 30 µM
Cc1ccc(-c2nc3ccc(C)cn3c2CC(=O)N(C)C)cc1    > 30 µM
CCC[C@@H]1C[C@@H](C(=O)N[C@@H]([C@H]2O[C@H](SC)[C@H](O)[C@@H](O)[C@H]2O)[C@H](C)Cl)N(C)C1    > 30 µM
CCC(C(=O)O)c1ccc(CC(C)C)cc1 (stereo not given)    > 30 µM
CC(N)Cc1ccccc1 (stereo not given)    > 30 µM
CN(C)[C@@H]1C(O)=C(C(N)=O)C(=O)[C@@]2(O)C(O)=C3C(=O)c4c(O)ccc(Cl)c4[C@@H](O)[C@H]3C[C@@H]12    > 10 µM
CS(=O)(=O)c1ccc([C@@H](O)[C@@H](CO)NC(=O)C(Cl)Cl)cc1    > 30 µM
O=C(OCCN1CCOCC1)c1cccnc1Nc1cccc(C(F)(F)F)c1 [MORNIFLUMATE]    > 30 µM
CCOc1cc(N)c([N+](=O)[O-])cc1C(=O)NC1CCN(CC2CC=CCC2)CC1 (stereo not given) [CINITAPRIDE]    > 30 µM
O=C(Nc1ccccc1)OCC(CN1CCCCC1)OC(=O)Nc1ccccc1 (stereo not given)    > 30 µM
O=C(O)c1cc(-c2ccc(F)cc2F)ccc1O    > 10 µM
Cc1cccc(C)c1NC(=O)C1CCCCN1C (stereo not given) [MEPIVACAINE]    > 30 µM
CN(CCOc1ccc(NS(C)(=O)=O)cc1)CCc1ccc(NS(C)(=O)=O)cc1 [DOFETILIDE]    > 30 µM
C[C@@H]1O[C@@H]1P(=O)(O)O    > 10 µM
CC(=O)O[C@@]12CO[C@@H]1C[C@H](O)[C@@]1(C)C(=O)[C@H](O)C3=C(C)[C@@H](OC(=O)[C@H](O)[C@@H](NC(=O)OC(C)(C)C)c4ccccc4)C[C@@](O)([C@@H](OC(=O)c4ccccc4)[C@H]21)C3(C)C [DOCETAXEL ANHYDROUS]    > 30 µM
